# assay.remarks: physchem
# test.conditions: 25 °C, organic solvent or mixture, thermodynamic from solid, Solubility of additive

| cpd.smiles | solubility |
| --- | --- |
| CC(=O)Nc1ccc(O)cc1 | ≥ 70 mM |

* * *

# assay.remarks: Solubility of the additive or its sodium salt in a mixed solvent of tetrahydrofuran, acetone, tert-butyl methyl ether and water (supernatant analysed by HPLC)
# test.conditions: 25 °C, organic solvent or mixture, thermodynamic from solid

| cpd.smiles | solubility |
| --- | --- |
| Cc1cccc(O)c1 | ≥ 50 mM |
